tgt: T1, IRP1 (iron regulatory protein 1) (UniProt P21399 1-889)
T1 sequence: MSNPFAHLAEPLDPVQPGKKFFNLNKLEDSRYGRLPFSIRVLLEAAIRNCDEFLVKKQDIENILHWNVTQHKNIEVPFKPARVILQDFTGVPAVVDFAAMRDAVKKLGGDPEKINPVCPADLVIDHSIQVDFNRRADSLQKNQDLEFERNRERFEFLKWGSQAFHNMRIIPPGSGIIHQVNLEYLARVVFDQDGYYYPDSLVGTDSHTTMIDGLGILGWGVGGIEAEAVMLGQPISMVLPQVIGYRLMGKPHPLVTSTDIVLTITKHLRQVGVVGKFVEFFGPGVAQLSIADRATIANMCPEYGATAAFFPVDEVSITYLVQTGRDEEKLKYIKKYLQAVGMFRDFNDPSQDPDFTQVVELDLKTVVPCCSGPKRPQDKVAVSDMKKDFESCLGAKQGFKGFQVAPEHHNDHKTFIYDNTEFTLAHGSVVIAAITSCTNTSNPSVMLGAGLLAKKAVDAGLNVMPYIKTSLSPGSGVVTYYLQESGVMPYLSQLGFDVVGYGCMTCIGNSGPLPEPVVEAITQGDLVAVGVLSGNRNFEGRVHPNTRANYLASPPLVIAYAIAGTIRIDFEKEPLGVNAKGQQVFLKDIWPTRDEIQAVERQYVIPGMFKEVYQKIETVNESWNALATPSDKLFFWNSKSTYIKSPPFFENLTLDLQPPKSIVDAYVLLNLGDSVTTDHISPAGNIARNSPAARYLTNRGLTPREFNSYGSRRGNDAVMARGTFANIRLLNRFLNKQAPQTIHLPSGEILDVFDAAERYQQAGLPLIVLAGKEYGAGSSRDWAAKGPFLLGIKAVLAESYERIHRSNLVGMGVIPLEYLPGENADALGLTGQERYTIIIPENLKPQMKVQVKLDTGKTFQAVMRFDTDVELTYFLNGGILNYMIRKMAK
protocol_description: MST; no Posiphen; MST: 2 nM labeled IRP1, 25 mM Tris pH 7.4, 150 mM NaCl, 0.1% Prionex, 10 min incubation; temperature not stated
assay_context: protein: commercial; hairpin
In this section, each of the binders is paired with its reported pKd.
// field semantics: pKd = negative decimal log of concentration (mol/L)

GGUGGCGGCGCGGGCAGAGCAAGGACGCGGCGGAU (structured_RNA) [APP IRE RNA (atypical)] | 6.65

API: the following record is the query input.
Output measured pKd for this item: GGGGUUUCCUGCUUCAACAGUGCUUGGACGGAACC (structured_RNA) [H-ferritin IRE RNA (canonical)]
7.05
